# credit: paper PMC4252486

# TESTED ON: NCp7 (mature nucleocapsid) (HIV-1 NL4-3, UniProt P12493 378-432)
# METHOD SUMMARY: fluorescence anisotropy
METRIC: pKd
// pKd is dimensionless: -log10 of concentration (M)

**Query** Look up pKd for this binder: AGCTGCTTTTTGCCTGTACT (ssDNA) [JL936 (20-nt ssDNA)]
**Result** 6.75
